Measured on: T1, HLA-A*0201 molecule expressed on human T2 cells (human)
T1 construct: surface HLA-A2 detected with anti-HLA-A2-PE (clone REA517); also called HLA-A2
Method notes: T2 cell HLA-A*0201 binding assay, anti-HLA-A2-PE flow cytometry
Listing of entries alongside the reported mean relative fluorescence intensity at 10 µM peptide.

Illustrative cases are given below, each with its answer.
I have this binder here, KVWSDVTPL [MMP11-H1] , and I need its recorded mean relative fluorescence intensity at 10 µM peptide.
72.7 % of HIV pol reference peptide

I have this binder here, ALYDVRTIL (also called ENT168-H) [UBE2C-H1] , and I need its recorded mean relative fluorescence intensity at 10 µM peptide.
6.8 % of HIV pol reference peptide

I have this binder here, ALYSEILTV (also called ENT169_B1; ENT_169-B1) [ANKRD30A-B1] , and I need its recorded mean relative fluorescence intensity at 10 µM peptide.
93.7 % of HIV pol reference peptide

I have this binder here, YLYDVRTAL (also called ENT168_B2) [UBE2C-B11] , and I need its recorded mean relative fluorescence intensity at 10 µM peptide.
68.4 % of HIV pol reference peptide

I have this binder here, YLILEYAPL [AURKA-H1] , and I need its recorded mean relative fluorescence intensity at 10 µM peptide.
13.1 % of HIV pol reference peptide

More entries:
I have this binder here, IVWSDVTYV (also called ENT187_B1) [MMP11-B1] , and I need its recorded mean relative fluorescence intensity at 10 µM peptide.
97.1 % of HIV pol reference peptide

I have this binder here, VMNPELLLL (also called ENT207_B3) [KIF2C-B12] , and I need its recorded mean relative fluorescence intensity at 10 µM peptide.
84.7 % of HIV pol reference peptide

I have this binder here, SLLSIQSYV (also called ENT172_B1) [UBE2C-B2] , and I need its recorded mean relative fluorescence intensity at 10 µM peptide.
92 % of HIV pol reference peptide

I have this binder here, ALIFGQLLT (also called ENT205-H) [TOP2A-H2] , and I need its recorded mean relative fluorescence intensity at 10 µM peptide.
3.2 % of HIV pol reference peptide

I have this binder here, YLSGANLFV (also called CEACAM-B1; ENT188_B1) [CEACAM5-B1] , and I need its recorded mean relative fluorescence intensity at 10 µM peptide.
69.2 % of HIV pol reference peptide

I have this binder here, SLDQKLFQL [ANKRD30A-H3] , and I need its recorded mean relative fluorescence intensity at 10 µM peptide.
99.1 % of HIV pol reference peptide

I have this binder here, ALIFGQLLL (also called ENT205_B1; ENT_205-B1) [TOP2A-B2] , and I need its recorded mean relative fluorescence intensity at 10 µM peptide.
73.6 % of HIV pol reference peptide

I have this binder here, KILDTVHSC [ANKRD30A-H2] , and I need its recorded mean relative fluorescence intensity at 10 µM peptide.
8.7 % of HIV pol reference peptide

I have this binder here, ILLSIQSLL [UBE2C-H2] , and I need its recorded mean relative fluorescence intensity at 10 µM peptide.
32.7 % of HIV pol reference peptide

I have this binder here, LILDTVHSL (also called ENT174_B1) [ANKRD30A-B2] , and I need its recorded mean relative fluorescence intensity at 10 µM peptide.
72 % of HIV pol reference peptide

I have this binder here, RLQQELMTL [UBE2C-H3] , and I need its recorded mean relative fluorescence intensity at 10 µM peptide.
71.5 % of HIV pol reference peptide

I have this binder here, VLNPELLML (also called ENT207_B4) [KIF2C-B13] , and I need its recorded mean relative fluorescence intensity at 10 µM peptide.
45.3 % of HIV pol reference peptide

I have this binder here, LVIGIILAV (also called ENT176-H) [CDH17-H1] , and I need its recorded mean relative fluorescence intensity at 10 µM peptide.
17.6 % of HIV pol reference peptide

I have this binder here, ALYDVRTILL (also called UBEC2-H11; ENT168-HL) [UBE2C-H11] , and I need its recorded mean relative fluorescence intensity at 10 µM peptide.
8.9 % of HIV pol reference peptide
